tested.on: altered TPP aptamer in THIC-III RNA from A. thaliana
experiment.notes: In-line probing of TPP binding by the spliced (altered) TPP aptamer of THIC type III RNA
measurement.context: in-line probing, spliced aptamer of THIC-III; read-out: apparent KD of the altered aptamer for TPP
pKd: −log10 of the molar value.
metric.name: pKd

Query: Jot down pKd (altered TPP aptamer in THIC-III RNA from A. thaliana) of Cc1ncc(C[n+]2csc(CCO[P@](=O)(O)OP(=O)(O)O)c2C)c(N)n1 [TPP, thiamine pyrophosphate] .
Reply: ~4.22
